Test system: HCT-116 colon
Procedure Text: NCI tumour cell line growth inhibition, 48 h
# TGI per record follows

Molecule: N#Cc1nc(-c2cc([N+](=O)[O-])cc([N+](=O)[O-])c2)oc1N
TGI: > 10 µM
--
Molecule: O=C1CCC(=Nc2ccc(Cl)cc2)N1C(=O)COc1ccc(OCC(=O)N2C(=O)CSC2=Nc2ccc(Cl)cc2)cc1
TGI: > 100 µM
--
Molecule: O=C(O)C1CC(c2ccc(F)cc2)=Nc2ccc(F)cc2S1 (configuration not stated)
TGI: > 100 µM
--
Molecule: Cc1cc(N(CCC#N)S(=O)(=O)c2ccccc2)ccc1/C=C1N=C(/C=C/c2ccccc2)OC\1=O
TGI: > 100 µM
--
Molecule: Cc1ccc(S(=O)(=O)Oc2cc(N)c3c(n2)CCC3)cc1
TGI: > 100 µM
--
Molecule: CC1CCCCc2nc3c(c(=O)n21)CCCC3 (configuration not stated)
TGI: > 100 µM
--
Molecule: COc1cc(/C=C/C(=O)O)ccc1C(=O)O/C=C/c1ccccc1
TGI: > 100 µM
--
Molecule: O=C1CCSSCCC(=O)NCCN1
TGI: > 100 µM
--
Molecule: CSC1CC2C(CC1(C)O)C2(C)C (configuration not stated)
TGI: > 100 µM
--
Molecule: NC(=O)C(=O)N/N=C1/c2ccccc2CC1C1(O)C(=O)Nc2c(Cl)cc(Cl)cc21 (configuration not stated)
TGI: > 100 µM
--
Molecule: COc1ccc2c(c1)O/C(=C\c1cccc(OCC(=O)Nc3nc4c(s3)CCCC4)c1)C2=O
TGI: > 100 µM
--
Molecule: O=C1OC(=O)C(c2c[nH]c3ccccc23)=C1c1c[nH]c2ccccc12
TGI: > 25 µM

---

Tested on: HOP-62 NSCLC
Procedure Text: NCI tumour cell line growth inhibition, 48 h
# TGI per record follows
Property Name: TGI

Molecule: CN(C)C(CN)CC1=C(CC(CN)N(C)C)CCC1 (stereo not drawn)
Obs Value: > 100 µM

Molecule: O=C1C(c2c(O)[nH]c3ccc(S(=O)(=O)O)cc23)=Nc2ccccc21
Obs Value: > 100 µM

Molecule: Cc1cccc(NC(=O)CC(=O)N2N=C(N(CCC#N)c3ccc(Cl)cc3)CC2c2ccccc2)c1 (stereo not drawn)
Obs Value: > 100 µM

---

# TGI per record follows
System: MDA-MB-231 breast
Procedure Text: NCI tumour cell line growth inhibition, 48 h
Property Name: TGI (µM)

Molecule: CC1SC(c2c(Cl)cccc2Cl)N(NC(=O)c2[nH]c3ccc(F)cc3c2-c2ccccc2)C1=O (stereo not drawn)
Relation Symbol: =
Obs Value: 4.28
--
Molecule: COC(=O)c1ccccc1/C=C1/Cc2ccccc2C1=O
Relation Symbol: >
Obs Value: 100
--
Molecule: CN1CCN(CCc2cccc(C(=O)c3cnn(-c4ccc(F)cc4)c3N)c2)CC1
Relation Symbol: >
Obs Value: 25
--
Molecule: N#Cc1nc(-c2cc([N+](=O)[O-])cc([N+](=O)[O-])c2)oc1N
Relation Symbol: >
Obs Value: 10
--
Molecule: CCCCOC(C)(C)/C=C/C(O)[C@](C)(O)[C@H]1[C@H](O)C[C@@]2(C)[C@@H]3CCc4c(cc(OC5OC(CO)C(O)C(O)C5O)c(O)c4C)C3(C)C(=O)C[C@]12C (stereo partly drawn)
Relation Symbol: >
Obs Value: 100
--
Molecule: Nc1nn2c(C(Br)Br)cc(C(Br)Br)nc2c1[N+](=O)[O-]
Relation Symbol: =
Obs Value: 2.95
--
Molecule: CC(C)=CCc1c2c(c3occ(-c4ccc(O)c(O)c4)c(=O)c3c1O)C=CC(C)(C)O2
Relation Symbol: =
Obs Value: 2.97
--
Molecule: COc1cc2c(cc1OCCCCOc1cc(-c3ccc(F)cc3)nc(C)n1)N=C[C@@H]1CCCN1C2=O
Relation Symbol: =
Obs Value: 5.18
--
Molecule: c1ccc2c(c1)[nH]c1nc3cc(-c4ccc5nc6c(nc5c4)[nH]c4ccccc46)ccc3nc12
Relation Symbol: =
Obs Value: 97
--
Molecule: Cc1cc(C)c2c(=O)n(CN3CC4Nc5ccccc5C4C3)sc2n1 (stereo not drawn)
Relation Symbol: =
Obs Value: 37.5
--
Molecule: O=C(O)[C@@H]1C[C@@H](O)CN1C(=O)OCc1ccccc1
Relation Symbol: >
Obs Value: 100
--
Molecule: CN(CCCN)CCCNc1nc2ccccc2c2[nH]c3ccccc3c12
Relation Symbol: =
Obs Value: 0.774
--
Molecule: Cc1cc2c(C)cc(=O)[nH]c2cc1N
Relation Symbol: >
Obs Value: 100

---

# TGI per record follows
Test system: NCI-H226 lung
Procedure Text: NCI tumour cell line growth inhibition, 48 h
Property Name: TGI

Compound: CCN(CC)CCOC(NC(C)=O)(c1ccccc1)c1ccccc1
Obs Value: > 100 µM

Compound: CC1=NCCc2c1[nH]c1cc(O)ccc21
Obs Value: > 100 µM

Compound: c1cc(-c2cn3ccsc3n2)ccn1
Obs Value: > 100 µM

Compound: CN(C)NC(=S)Nc1ccccc1Br
Obs Value: > 100 µM

Compound: COc1ccccc1NC(=O)CC(=O)N1N=C(C)C(N=Nc2ccc(S(N)(=O)=O)cc2)C1=O (stereo not given)
Obs Value: > 100 µM

Compound: O=C([O-])c1ccccc1Nc1ccccn1.O=C([O-])c1ccccc1Nc1ccccn1.[Ni+2]
Obs Value: > 100 µM

Compound: O=C1NCCCc2nonc21
Obs Value: > 100 µM

Compound: CC1=NOC(=O)/C1=C/c1ccccc1O
Obs Value: > 100 µM

Compound: N#Cc1nc(-c2cc([N+](=O)[O-])cc([N+](=O)[O-])c2)oc1N
Obs Value: > 10 µM

Compound: C[C@H](Nc1ncnc2nc[nH]c12)c1cc2cccc(Cl)c2c(=O)n1-c1ccccc1
Obs Value: > 100 µM
